# Measured On: human CDK9/CyclinT kinase complex (Homo sapiens, UniProt P50750)
# Sequence (P50750 whole entry): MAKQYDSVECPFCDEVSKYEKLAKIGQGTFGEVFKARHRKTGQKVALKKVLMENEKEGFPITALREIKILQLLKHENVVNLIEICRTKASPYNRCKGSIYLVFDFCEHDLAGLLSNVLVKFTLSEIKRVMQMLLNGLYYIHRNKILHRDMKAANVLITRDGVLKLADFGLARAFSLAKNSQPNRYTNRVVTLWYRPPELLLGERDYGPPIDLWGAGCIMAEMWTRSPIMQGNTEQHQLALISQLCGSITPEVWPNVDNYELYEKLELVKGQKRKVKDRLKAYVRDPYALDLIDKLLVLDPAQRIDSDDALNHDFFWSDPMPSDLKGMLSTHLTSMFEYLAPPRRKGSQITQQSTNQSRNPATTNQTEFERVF
# Sequence (O60563 whole entry partner): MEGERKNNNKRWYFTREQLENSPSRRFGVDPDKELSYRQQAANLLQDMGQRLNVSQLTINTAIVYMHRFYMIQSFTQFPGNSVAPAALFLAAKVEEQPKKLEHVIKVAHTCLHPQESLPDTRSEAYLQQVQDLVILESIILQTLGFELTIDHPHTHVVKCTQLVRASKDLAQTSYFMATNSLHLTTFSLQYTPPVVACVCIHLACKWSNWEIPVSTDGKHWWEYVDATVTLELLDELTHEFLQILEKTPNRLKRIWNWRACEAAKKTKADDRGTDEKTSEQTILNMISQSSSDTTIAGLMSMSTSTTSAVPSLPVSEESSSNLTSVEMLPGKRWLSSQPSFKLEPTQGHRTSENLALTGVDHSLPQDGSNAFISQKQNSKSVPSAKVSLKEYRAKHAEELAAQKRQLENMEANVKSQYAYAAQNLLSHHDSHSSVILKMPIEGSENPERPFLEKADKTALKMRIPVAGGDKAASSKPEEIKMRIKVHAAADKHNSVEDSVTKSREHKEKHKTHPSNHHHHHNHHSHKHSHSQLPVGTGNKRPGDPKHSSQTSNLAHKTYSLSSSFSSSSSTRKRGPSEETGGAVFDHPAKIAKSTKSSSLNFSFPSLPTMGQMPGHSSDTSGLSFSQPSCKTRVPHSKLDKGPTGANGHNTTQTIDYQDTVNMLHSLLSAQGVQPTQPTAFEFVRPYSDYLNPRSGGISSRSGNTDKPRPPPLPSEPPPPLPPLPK
# Test Method Notes: In vitro CDK9/CyclinT assay (IMAP fluorescence polarization kinase assay)
# Experimental Conditions: 5 nM CDK9/CyclinT, 400 nM TAMRA-Rbtide, 12 μM ATP, 1 hour at room temperature; read-out: CDK9 inhibitory range
Below, each of the compounds is paired with its reported IC50 value.

{"Compound": "COc1ccc(F)cc1-c1cc(Nc2cccc(CNc3nc4ccccc4[nH]3)c2)ncn1 [Example 62]", "Measured On": "human CDK9/CyclinT kinase complex (Homo sapiens, UniProt P50750)", "IC50": "< 1 µM"}
{"Compound": "Oc1cccc(-c2cc(Nc3cccc(Cn4cnc5ccccc54)c3)ncn2)c1 [Example 83]", "Measured On": "human CDK9/CyclinT kinase complex (Homo sapiens, UniProt P50750)", "IC50": "< 10 µM"}
{"Compound": "COc1cc(F)ccc1-c1cc(Nc2cccc(CNS(C)(=O)=O)c2)ncn1 [Example 7]", "Measured On": "human CDK9/CyclinT kinase complex (Homo sapiens, UniProt P50750)", "IC50": "< 0.1 µM"}
{"Compound": "CS(=O)(=O)NCc1cccc(Nc2cc(-c3ccccc3F)ncn2)c1 [Example 16]", "Measured On": "human CDK9/CyclinT kinase complex (Homo sapiens, UniProt P50750)", "IC50": "< 10 µM"}
{"Compound": "CS(=O)(=O)NCc1cccc(Nc2cc(-c3cn[nH]c3)ncn2)c1 [Example 32]", "Measured On": "human CDK9/CyclinT kinase complex (Homo sapiens, UniProt P50750)", "IC50": "< 1 µM"}

Please give the measured IC50 for this compound: COc1ccccc1-c1cc(Nc2cccc(CNc3nc4ccccc4[nH]3)c2)ncn1 [Example 60] < 1 µM

Can you check CSc1ccccc1-c1cc(Nc2ccc(CNS(C)(=O)=O)cc2)ncn1 [Example 41] next? < 1 µM

Can you check CS(=O)(=O)NCc1ccc(Nc2cc(Cl)ncn2)cc1 [Example 33] next? > 10 µM

Can you check COc1ccc(C)cc1-c1cc(Nc2cccc(CNS(C)(=O)=O)c2)ncn1 [Example 26] next? < 10 µM
